# Target or test system: Serine/threonine-protein kinase 4 (Homo sapiens) (UniProt Q13043)
# Sequence (Q13043 whole entry): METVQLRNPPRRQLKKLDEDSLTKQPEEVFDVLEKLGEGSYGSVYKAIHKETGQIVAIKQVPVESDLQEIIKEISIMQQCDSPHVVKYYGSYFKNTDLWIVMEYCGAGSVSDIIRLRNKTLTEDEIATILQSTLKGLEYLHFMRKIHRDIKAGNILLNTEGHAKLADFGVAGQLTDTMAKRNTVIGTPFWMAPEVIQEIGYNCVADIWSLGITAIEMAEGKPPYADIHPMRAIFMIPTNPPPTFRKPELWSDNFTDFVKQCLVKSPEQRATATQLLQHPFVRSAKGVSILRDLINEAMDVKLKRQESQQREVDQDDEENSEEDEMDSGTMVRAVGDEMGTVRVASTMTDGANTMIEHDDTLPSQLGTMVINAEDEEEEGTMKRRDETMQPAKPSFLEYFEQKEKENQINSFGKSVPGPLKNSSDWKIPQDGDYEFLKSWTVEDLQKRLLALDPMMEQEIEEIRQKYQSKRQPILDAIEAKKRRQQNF
Class boundaries, taken from values of ΔTm, are as follows: low value = under 2 °C, medium value = from 2 °C up to 4 °C, high value = 4 °C and over

Look over these answered cases.
>>> class_label("CC(C)N(CCO)c1nc(Nc2cccc(Cl)c2)c2ncn(C(C)C)c2n1")
"high value"
>>> class_label("Oc1cccc(-c2nc(N3CCOCC3)c3oc4ncccc4c3n2)c1")
"low value"
>>> class_label("Cn1cnc2c(NCc3ccccc3)nc(NCCO)nc21")
"low value"
>>> class_label("O=C1Cc2c([nH]c3ccc([N+](=O)[O-])cc23)-c2ccccc2N1")
"high value"
>>> class_label("Cc1nc2sccn2c(=O)c1CCN1CCC(=C(c2ccccc2)c2ccc(F)cc2)CC1")
"medium value"

Query: Categorize the following entry: CCCNC(=O)Nc1ccc(Oc2ncnc3cc(OC)c(OC)cc23)cc1Cl
Reply: low value

Query: Class label required: COc1cc(C[C@H]2C(=O)OC[C@@H]2Cc2ccc(OC)c(OC)c2)ccc1O
Reply: low value

Query: Dear colleague, I would appreciate it if you could identify the bin for Cn1cc(/C=C2/C(=O)Nc3ccc(S(N)(=O)=O)cc32)c2ccccc21 and reply at your convenience.
Reply: low value

----------
# Measurement description: Binding affinity at PKC
Entries and their Ki
Unit µM implied. Number only.

Please review the following examples before continuing.
>>> meas_value("O=S(=O)(NCCNC/C=C/c1ccc(Br)cc1)c1cccc2cnccc12")
31.7
>>> meas_value("N=C(N)NCCNS(=O)(=O)c1cccc2cnccc12")
40
>>> meas_value("O=S(=O)(c1cccc2c(Cl)cccc12)N1CCCNCC1")
54

# input for lookup
Query: Please report the measured Ki for Cc1cncc2cccc(S(=O)(=O)N3CCCNC[C@@H]3C)c12
Reply: 9.27

----------
Observed ΔTm, system Serine/threonine-protein kinase PLK4 (Homo sapiens).

Reference set (5 entries):
>>> meas_value("c1ccc(-c2n[nH]c3c2oc2ccccc23)cc1")
"1.2 °C"
>>> meas_value("Cc1nc(Nc2ncc(C(=O)Nc3c(C)cccc3Cl)s2)cc(N2CCN(CCO)CC2)n1")
"2.5 °C"
>>> meas_value("CCN1/C(=C/C(C)=O)Sc2ccc(OC)cc21")
"-0.2 °C"
>>> meas_value("Cc1ccc(NC(=O)c2ccc(CN3CCN(C)CC3)cc2)cc1Nc1nccc(-c2cccnc2)n1")
"0.2 °C"
>>> meas_value("NCCNS(=O)(=O)c1cccc2c(Cl)cccc12")
"0.6 °C"

Query: Retrieve ΔTm on Serine/threonine-protein kinase PLK4 (Homo sapiens); query N#C/C(=C1/Nc2ccccc2S1)c1ccnc(NCCc2cccnc2)n1
Reply: 5.2 °C

Query: Please indicate recorded ΔTm of C[C@@H]1C[C@H]2O[C@@H]2/C=C\C=C\C(=O)Cc2c(Cl)c(O)cc(O)c2C(=O)O1 measured with Serine/threonine-protein kinase PLK4 (Homo sapiens).
Reply: 0.5 °C

Query: Please report the measured ΔTm for C#Cc1cccc(Nc2ncnc3cc(OCCOC)c(OCCOC)cc23)c1 tested on Serine/threonine-protein kinase PLK4 (Homo sapiens).
Reply: -0.1 °C

Query: Consider the molecule NC1=NC(=O)/C(=C2\CCNC(=O)c3[nH]c(Br)cc32)N1 tested on Serine/threonine-protein kinase PLK4 (Homo sapiens); state its ΔTm.
Reply: 3 °C

Query: Param request: ΔTm | system Serine/threonine-protein kinase PLK4 (Homo sapiens) | item N#CCCc1ccc2c(c1)-c1[nH]c3ccc([N+](=O)[O-])cc3c1CC(=O)N2
Reply: 10.3 °C

Query: Provide ΔTm, tested on Serine/threonine-protein kinase PLK4 (Homo sapiens), for COc1cc2ncnc(Nc3cccc(Br)c3)c2cc1OC .
Reply: 3.4 °C

----------
# Measurement description: Inhibition of mouse CaM kinase 2
Below: a set of entries, each annotated with reported IC50.
Write the answer as a number in nM, unit excluded.

>>> meas_value("Oc1cccc(-c2nc(N3CCOCC3)c3sccc3n2)c1")
370

Proceed to the following item.
Query: Output measured IC50 for this item: COc1ccc(S(=O)(=O)N(CCO)c2ccccc2CN(C)C/C=C/c2ccc(Cl)cc2)cc1
Reply: 370

----------
# Target or test system: Mitogen-activated protein kinase kinase kinase 5 (Homo sapiens)
API: label(entry) gives label 1 if the entry's ΔTm is strictly smaller than 0.3 °C; on equality or larger values it gives label 0.

// below: answered compounds
>>> class_label("CN1CCC(Nc2ncc3ncnc(Nc4ccc(F)c(Cl)c4)c3n2)CC1")
"label 0"
>>> class_label("CCOC(=O)c1cnc2oc3ccc(O)cc3c2c1-c1ccccc1")
"label 0"
>>> class_label("NCCNc1ncc(C(N)=O)c(Nc2cccc(C(F)(F)F)c2)n1")
"label 1"

Query: Given NCCNS(=O)(=O)c1cccc2c(Cl)cccc12 , is recorded ΔTm strictly lower than 0.3 °C?
Reply: label 0

----------
# Target or test system: Serine/threonine-protein kinase PAK 4 (Homo sapiens)
Observation type: ΔTm (°C)
Provide only the numeric value, understood in °C.

>>> meas_value("O=C(O)c1cc(NCc2cc(O)ccc2O)ccc1O")
0
>>> meas_value("O=C1Nc2ccc(I)cc2/C1=C\\c1cc(Br)c(O)c(Br)c1")
-0.8
>>> meas_value("O=c1c2ccccc2[nH]c(=S)n1CCN1CCC(=C(c2ccc(F)cc2)c2ccc(F)cc2)CC1")
1.3

Query: Identify measured ΔTm corresponding to O=Nc1c(-c2c(O)[nH]c3ccccc23)[nH]c2ccccc12
Reply: 1.7

Query: # return recorded ΔTm for entry COc1cc2ncnc(Nc3cccc(O)c3)c2cc1OC
Reply: 1

Query: Provide measured ΔTm value, entry: CC(C)(C)n1nc(-c2ccc(Cl)cc2)c2c(N)ncnc21
Reply: 1

----------
# Target or test system: Calcium/calmodulin-dependent protein kinase type II subunit gamma (Homo sapiens)
Observation type: ΔTm (°C)
Just the number please, in °C, no unit attached.

Worked cases, ΔTm given:
>>> meas_value("CCCCc1c(-c2ccc(O)cc2)[nH]c2nccnc12")
1.1
>>> meas_value("Nc1ncnc2c1c(I)cn2[C@@H]1O[C@H](CO)[C@@H](O)[C@H]1O")
0.6
>>> meas_value("COc1ccc(CNc2nc(N(CCO)CCO)nc3c2ncn3C(C)C)cc1")
0.3
>>> meas_value("COc1cc(O)c2c(c1)oc(=O)c1c3cc(O)c(O)cc3oc21")
0.2
>>> meas_value("O=C1Cc2c([nH]c3ccc(Br)cc23)-c2ccccc2N1")
-0.2
>>> meas_value("Nc1cc2ncnc(Nc3cccc(Br)c3)c2cc1N")
-0.1
>>> meas_value("O=C1Nc2ccccc2/C1=C\\c1ccc[nH]1")
1.4
>>> meas_value("Cn1cc(/C=C2/C(=O)Nc3ccc(S(N)(=O)=O)cc32)c2ccccc21")
0.5

Query: Indicate the recorded ΔTm value for this compound: O=c1cc(N2CCOCC2)oc2c(-c3ccccc3)cccc12
Reply: 0.3

Query: Identify ΔTm associated with the compound COc1ccc(S(=O)(=O)N(CCO)c2ccccc2CN(C)C/C=C/c2ccc(Cl)cc2)cc1
Reply: -0.6

Query: Please list ΔTm recorded for the compound CN(C)c1ccc(CC2C(=O)Nc3ccccc32)cc1 (configuration not stated)
Reply: 0.2

----------
# Target or test system: Serine/threonine-protein kinase 16 (Homo sapiens) (UniProt O75716)
# Sequence (O75716 whole entry): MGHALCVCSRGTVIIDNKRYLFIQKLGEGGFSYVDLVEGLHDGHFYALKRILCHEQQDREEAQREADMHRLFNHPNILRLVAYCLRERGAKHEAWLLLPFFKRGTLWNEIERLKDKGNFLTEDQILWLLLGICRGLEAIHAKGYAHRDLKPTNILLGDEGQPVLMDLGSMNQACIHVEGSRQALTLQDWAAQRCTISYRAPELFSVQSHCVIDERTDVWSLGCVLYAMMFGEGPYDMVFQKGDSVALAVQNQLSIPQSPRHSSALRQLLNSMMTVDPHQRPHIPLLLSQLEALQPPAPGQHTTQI
Field: class. Source value: ΔTm. Ranges: lower band: < 0.4 °C; central band: ≥ 0.4 °C and < 3 °C; upper band: ≥ 3 °C

Here are 3 molecules together with their reported answers.
>>> class_label("NS(=O)(=O)c1ccc(Nc2nc(OCC3CCCCC3)c3nc[nH]c3n2)cc1")
"upper band"
>>> class_label("O=c1sn(Cc2ccccc2)c(=S)n1Cc1ccccc1")
"lower band"
>>> class_label("COc1cc(OC)c(/C=C2\\C(=O)Nc3ccccc32)c(OC)c1")
"lower band"

Query: GET /class?item= Cc1nc2sccn2c(=O)c1CCN1CCC(=C(c2ccccc2)c2ccc(F)cc2)CC1
Reply: upper band

Query: In plain terms, what class is COc1ccc2c(c[n+](C)c3c4cc5c(cc4ccc23)OCO5)c1OC [CHELERYTHRINE CHLORIDE] ?
Reply: lower band

Query: Would you mind sorting Cn1cnc2c(NCc3ccccc3)nc(NCCO)nc21 into the appropriate category?
Reply: central band

Query: Each molecule maps to one class by ΔTm. Which class for O=c1ccc2ccc(O)c(O)c2o1 ?
Reply: lower band

Query: State the class of the molecule shown: Cc1nc(N)sc1-c1ccnc(Nc2cccc([N+](=O)[O-])c2)n1
Reply: central band

Query: Band assignment needed for NCCNS(=O)(=O)c1cccc2c(Cl)cccc12 please.
Reply: lower band

Query: Given O=C1Nc2ccc(I)cc2/C1=C\c1cc(Br)c(O)c(Br)c1 , name the class its ΔTm places it in.
Reply: central band

Query: # bin label for O=C(Nc1cccc(Nc2cc(Nc3cccc(C(F)(F)F)c3)ncn2)c1)C1CC1
Reply: upper band

Query: Which ΔTm category applies to O=C1NC(=O)c2c1c1c3ccccc3[nH]c1n1cncc21 [ISOGRANULATIMIDE] here?
Reply: upper band
